Molecular target: group 1: ZNF566 and ARNTL homologous peptide/HLA-A*02:01 complexes (mixed)
Experiment: SPR (BIAcore T200), crude scFv captured, mixed complexes flowed over
ASSAY METRIC: SPR binding level (RU)
Answer in RU, number only, no unit symbol.

Example entries begin here.
BINDER	READOUT UNITS	OBSERVED RESULT
16-AS170036 VL1VH1-56Y108A (scFv) scFv: QSALTQPRSVSGSPGQSVTISCAGTSSDVGSENYVSWYQQHPGKAPKLMIYQVNKRASGVPDRFSGSKSGNTASLTISGLQAEDEADYYCASYRSSDHNIVFGGGTKLTVLGGGGSGGGGSGGGGSEVQLVESGGGLVQPGGSLRLSCAASGFTFSSYAMSWVRQAPGKGLEWVSTINSGTYSPYYADSVKGRFTISRDNSKNTLYLQMNSLRAEDTAVYYCAKNFFDGSWFLAPPAMDYWGQGTLVTVSSHHHHHH	RU	4.5
10-AS170036 VL1VH1-57K98F (scFv) scFv: QSALTQPRSVSGSPGQSVTISCAGTSSDVGSENYVSWYQQHPGKAPKLMIYQVNKRASGVPDRFSGSKSGNTASLTISGLQAEDEADYYCASYRSSDFNIVFGGGTKLTVLGGGGSGGGGSGGGGSEVQLVESGGGLVQPGGSLRLSCAASGFTFSSYAMSWVRQAPGKGLEWVSTINSGTGKPYYADSVKGRFTISRDNSKNTLYLQMNSLRAEDTAVYYCAKNFFDGSWFLGPPAMDYWGQGTLVTVSSHHHHHH	RU	6.8
19-AS170036 VL1VH1-56N108A (scFv) scFv: QSALTQPRSVSGSPGQSVTISCAGTSSDVGSENYVSWYQQHPGKAPKLMIYQVNKRASGVPDRFSGSKSGNTASLTISGLQAEDEADYYCASYRSSDHNIVFGGGTKLTVLGGGGSGGGGSGGGGSEVQLVESGGGLVQPGGSLRLSCAASGFTFSSYAMSWVRQAPGKGLEWVSTINSGTNSPYYADSVKGRFTISRDNSKNTLYLQMNSLRAEDTAVYYCAKNFFDGSWFLAPPAMDYWGQGTLVTVSSHHHHHH	RU	5
43-AS170036 VL1VH1-56Y98I108A (scFv) scFv: QSALTQPRSVSGSPGQSVTISCAGTSSDVGSENYVSWYQQHPGKAPKLMIYQVNKRASGVPDRFSGSKSGNTASLTISGLQAEDEADYYCASYRSSDINIVFGGGTKLTVLGGGGSGGGGSGGGGSEVQLVESGGGLVQPGGSLRLSCAASGFTFSSYAMSWVRQAPGKGLEWVSTINSGTYSPYYADSVKGRFTISRDNSKNTLYLQMNSLRAEDTAVYYCAKNFFDGSWFLAPPAMDYWGQGTLVTVSSHHHHHH	RU	25.7

Pending binder:
Item: 05-AS170036 VL1VH1-56N98I (scFv) scFv: QSALTQPRSVSGSPGQSVTISCAGTSSDVGSENYVSWYQQHPGKAPKLMIYQVNKRASGVPDRFSGSKSGNTASLTISGLQAEDEADYYCASYRSSDINIVFGGGTKLTVLGGGGSGGGGSGGGGSEVQLVESGGGLVQPGGSLRLSCAASGFTFSSYAMSWVRQAPGKGLEWVSTINSGTNSPYYADSVKGRFTISRDNSKNTLYLQMNSLRAEDTAVYYCAKNFFDGSWFLGPPAMDYWGQGTLVTVSSHHHHHH | SPR binding level: 4.4
